protocolNotes: NCI Yeast Anticancer Drug Screen. Data for the bub3 strain (AID 167)
conditionNotes: S. cerevisiae bub3 mutant strain; at 50.0 µM unless noted
Compounds without any hit were thinned out: in the full panel of roughly 79,000, 15% have a hit. Active and inactive are the calls of the source. Cut-off read from the data, not from the text of the source: active = growth inhibition above about 70%; inactive = the rest.
Labels: active, inactive

>  <molecule>
Cc1cc([N+](=O)[O-])c(Nc2ccc(C)c(Cl)c2)c([N+](=O)[O-])c1

>  <answerLabel>
inactive

$$$$
>  <molecule>
CC12C(=C(C#N)C(=N)N1c1ccc(Cl)c(Cl)c1)C=C(O)CC2SCCS(=O)(=O)O (centres undefined)

>  <answerLabel>
inactive

$$$$
>  <molecule>
Cc1cc(C)c(-c2noc(-c3ccc(Cl)cc3)c2C2=NCCN2)c(C)c1

>  <answerLabel>
inactive

$$$$
>  <molecule>
CC(=O)c1ccc([N+](=O)[O-])[nH]1

>  <answerLabel>
inactive

$$$$
>  <molecule>
O=C(O)COc1ccc(NC(=O)COc2ccc(Cl)c(Cl)c2)cc1

>  <answerLabel>
inactive

$$$$
>  <molecule>
N#CCCN1CCCC(=O)NC1=O

>  <answerLabel>
inactive

$$$$
>  <molecule>
Cc1nc(-c2ccc(N=Cc3ccc(N4CCC5(CCCCC5)CC4)cc3)cc2)cs1

>  <answerLabel>
inactive

$$$$
>  <molecule>
O=C(NC1CCCCC1)/C(=C\c1ccccc1)NC(=O)c1ccccc1

>  <answerLabel>
inactive

$$$$
>  <molecule>
COc1cccc(C)c1O

>  <answerLabel>
inactive

$$$$
>  <molecule>
CC(=O)NCCc1c[nH]c2ccc(Cl)cc12

>  <answerLabel>
inactive

$$$$
>  <molecule>
O=C(c1ccc(Cl)cc1)c1ccc(OCCCOc2ccc(C(=O)c3ccc(Cl)cc3)cc2Cl)c(Cl)c1

>  <answerLabel>
inactive

$$$$
>  <molecule>
c1ccc(OC2=NC3=S(S2)SC(Oc2ccccc2)=N3)cc1

>  <answerLabel>
inactive

$$$$
>  <molecule>
CCN(CC)CCC(=O)c1ccccc1

>  <answerLabel>
inactive

$$$$
>  <molecule>
CCOC(=C\C(=O)NC)/C=C/c1ccc([N+](=O)[O-])cc1

>  <answerLabel>
inactive

$$$$
>  <molecule>
NCC(O)C(O)C(O)CO (centres undefined)

>  <answerLabel>
inactive

$$$$
>  <molecule>
O=C1Nc2cc(Br)ccc2C1=O

>  <answerLabel>
inactive

$$$$
>  <molecule>
ClCCCN(CCCCl)c1ccc(C=Nc2cccc(Cl)c2)c(Cl)c1

>  <answerLabel>
active

$$$$
>  <molecule>
Nc1c(C(=O)O)ccc(O)c1O

>  <answerLabel>
inactive

$$$$
>  <molecule>
Cc1cc(=O)[nH]c(N/N=C/C=C/c2ccccc2)n1

>  <answerLabel>
inactive

$$$$
>  <molecule>
O=C1c2ccccc2C(=O)N1c1ccc(OCCN2CCCCC2)cc1

>  <answerLabel>
inactive

$$$$
>  <molecule>
Cc1ccc(S(=O)(=O)NC(=O)NC(C)C(=O)O)cc1 (centres undefined)

>  <answerLabel>
inactive

$$$$
>  <molecule>
Cc1ccccc1C=NC12CC3CC(CC(C3)C1)C2

>  <answerLabel>
inactive

$$$$
>  <molecule>
Cc1ccc(OC(=O)Oc2ccc(C)cc2)cc1

>  <answerLabel>
inactive

$$$$
>  <molecule>
COc1ccc(C)cc1S(=O)(=O)c1ccc(Cl)cc1[N+](=O)[O-]

>  <answerLabel>
inactive

$$$$
>  <molecule>
CC(C)CNC(=O)c1ccccc1Cl

>  <answerLabel>
inactive

$$$$
>  <molecule>
CCCCSCC(N)CO (centres undefined)

>  <answerLabel>
inactive

$$$$
>  <molecule>
Cc1ccc([N+](=O)[O-])cc1NS(=O)(=O)c1cc(Cl)c(Cl)cc1Cl

>  <answerLabel>
inactive

$$$$
>  <molecule>
Cc1ccc(N2CC(=O)N3CCCC(C)N3C(=O)C2)cc1 (centres undefined)

>  <answerLabel>
inactive

$$$$
>  <molecule>
CC(C)CC(C(=O)NC1CCCCC1)N1C(=O)c2ccccc2C1=O (centres undefined)

>  <answerLabel>
inactive

$$$$
